test: Selectivity index, ratio of IC50 for cytotoxicity against human WI-38 cells to IC50 for antiproliferative activity against human HepG2 cells; assay type: toxicity, cell-based; settings: WI-38 cells and HepG2 cells, read-out: Ratio IC50
# reported selectivity ratio; entries follow

Worked examples follow.
>  <smiles.entry>
CC(=O)Nc1nc(C(=O)NNC(=O)CCN2CCCCC2)cs1

>  <selectivity ratio>
6.43

$$$$
>  <smiles.entry>
CC(=O)Nc1nc(C(=O)NNC(=O)CN2CCCCC2)cs1

>  <selectivity ratio>
4.88

$$$$
>  <smiles.entry>
CC(=O)Nc1nc(C(=O)NNC(=O)CN2CCOCC2)cs1

>  <selectivity ratio>
1.79

$$$$

input: Need selectivity ratio, item `CC(=O)Nc1nc(C(=O)NNC(=O)CCN2CCN(C)CC2)cs1`
output: 4.76

input: # iterate: `CC(=O)Nc1nc(C(=O)NNC(=O)CCN2CCOCC2)cs1`
output: 7.29

FYI, the data here is from ChEMBL document CHEMBL5257091.
